Measured DC50, listed per entry.
- system: ER (Homo sapiens (Human))
- Sequence (P03372 whole entry): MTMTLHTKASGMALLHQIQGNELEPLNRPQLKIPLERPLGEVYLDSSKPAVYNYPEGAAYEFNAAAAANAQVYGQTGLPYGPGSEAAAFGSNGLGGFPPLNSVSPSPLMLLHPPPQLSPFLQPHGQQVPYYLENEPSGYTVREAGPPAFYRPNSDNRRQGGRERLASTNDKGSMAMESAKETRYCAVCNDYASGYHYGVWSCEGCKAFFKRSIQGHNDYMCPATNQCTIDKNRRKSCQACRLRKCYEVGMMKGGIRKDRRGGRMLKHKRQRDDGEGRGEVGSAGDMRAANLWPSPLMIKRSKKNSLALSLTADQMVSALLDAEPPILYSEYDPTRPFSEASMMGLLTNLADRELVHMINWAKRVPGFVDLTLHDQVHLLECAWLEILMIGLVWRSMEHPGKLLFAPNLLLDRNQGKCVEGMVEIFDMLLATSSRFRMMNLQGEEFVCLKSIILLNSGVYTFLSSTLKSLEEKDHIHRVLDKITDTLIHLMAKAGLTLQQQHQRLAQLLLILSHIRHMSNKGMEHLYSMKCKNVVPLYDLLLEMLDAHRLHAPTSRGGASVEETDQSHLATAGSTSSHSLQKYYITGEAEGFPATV
- protocol: In-cell western (ICW) ER degradation assay in MCF-7 cells
- Assay type: cell-based
- run-parameters: ER degradation, MCF7, 16 hrs
Counter-ions that a name gives are not always drawn.

compound	DC50
O=C1CCC(Nc2ccc(N3CCN(CC4CC5(CCN(c6ccc([C@@H]7c8ccc(O)cc8OC[C@@H]7c7ccccc7)cc6)CC5)C4)CC3)c(F)c2)C(=O)N1 (stereo partly shown)	> 0.1 µM
O=C1CCC(NC(=O)c2ccc(N3CCC(CN4CCN(c5ccc([C@H]6c7ccc(O)cc7OC[C@H]6c6ccccc6)cc5)CC4)CC3)cn2)C(=O)N1 (stereo partly shown) [Compound A129]	0.01 to 0.1 µM
COc1cc(N2CCC(CN3CCN4c5ccc6c(c5OC[C@H]4C3)CN(C3CCC(=O)NC3=O)C6=O)CC2)c(F)cc1[C@H]1c2ccc(O)cc2OC[C@H]1c1ccccc1 (stereo partly shown)	0.01 to 0.1 µM
O=C1CCC(N2C(=O)c3cc4c(cc3C2=O)CN(C(=O)CN2CCC3(CC2)CCN(c2ccc([C@H]5c6ccc(O)cc6OC[C@H]5c5ccccc5)cc2)CC3)C4)C(=O)N1 (single isomer, unassigned) [Compound A54, formate]	0.01 to 0.1 µM
O=C1CCC(N2Cc3cc4c(cc3C2=O)OC[C@@H]2CN(CC3CCN(c5ccc([C@@H]6c7ccc(O)cc7OC[C@@H]6c6ccccc6)cn5)CC3)CCN42)C(=O)N1 (single isomer, unassigned)	> 0.1 µM
O=C1CCC(N2Cc3cc4c(cc3C2=O)OCC42CCN(CC3CC4(CCN(c5ccc([C@@H]6c7ccc(O)cc7OC[C@@H]6c6ccccc6)cc5)CC4)C3)CC2)C(=O)N1 (stereo partly shown)	< 0.001 µM
O=C1CC[C@@H](N2Cc3cc4c(cc3C2=O)OC[C@@H]2CN(C[C@H]3COC5(CCN(c6ccc([C@H]7c8ccc(O)cc8OC[C@H]7c7ccccc7)cc6)CC5)C3)CCN42)C(=O)N1	0.01 to 0.1 µM
O=C1CC[C@H](NC(=O)c2ccc3c(n2)OC[C@H]2CN(CC4CCC5(CC4)CN(c4ccc([C@@H]6c7ccc(O)cc7OC[C@@H]6c6ccccc6)cc4)C5)CCN32)C(=O)N1	0.001 to 0.01 µM
O=C1CCC(N2Cc3c(ccc4c3OC[C@H]3CN(CC5CCN(c6ccc([C@@H]7c8ccc(O)cc8OC[C@@H]7c7ccccc7)cn6)CC5)CCN43)C2=O)C(=O)N1 (single isomer, unassigned)	0.001 to 0.01 µM
O=C1CCC(N2Cc3cc4c(cc3C2=O)OC[C@@H]2CN(CC3CCC5(CC3)CN(c3ccc([C@@H]6c7ccc(O)cc7OC[C@@H]6c6ccccc6)cc3)C5)CCN42)C(=O)N1 (stereo partly shown) [Compound A53]	0.001 to 0.01 µM
O=C1CCC(Nc2ccc(C3CCN(CC4CC5(CCN(c6ccc([C@@H]7c8ccc(O)cc8OC[C@@H]7c7ccccc7)cc6)CC5)C4)CC3)c(F)c2)C(=O)N1 (single isomer, unassigned)	< 0.001 µM
COc1nc(C(=O)NC2CCC(=O)NC2=O)ccc1N1CCN(CC2CCC3(CC2)CN(c2ccc([C@@H]4c5ccc(O)cc5OC[C@@H]4c4ccccc4)cc2)C3)CC1 (single isomer, unassigned)	0.001 to 0.01 µM
COc1cc(N2CCC(CN3CCN4c5cc6c(cc5OC[C@H]4C3)C(=O)N(C3CCC(=O)NC3=O)C6)CC2)ccc1[C@@H]1c2ccc(O)cc2OC[C@@H]1c1ccccc1 (single isomer, unassigned)	< 0.001 µM
O=C1CC[C@@H](N2Cc3c(ccc4c3OC[C@@H]3CN(C[C@@H]5COC6(CCN(c7ccc([C@H]8c9ccc(O)cc9OC[C@H]8c8ccccc8)cc7F)CC6)C5)CCN43)C2=O)C(=O)N1	> 0.1 µM
O=C1CCC(N2Cc3cc4c(cc3C2=O)OC[C@@H]2CN(CC3CCC5(CC3)CN(c3ccc([C@@H]6c7ccc(O)cc7OC[C@@H]6c6ccccc6)cc3)C5)CCN42)C(=O)N1 (stereo partly shown) [Compound A63]	> 0.1 µM
O=C1CCC(N2Cc3cc4c(cc3C2=O)CN(C(=O)CN2CCC3(CC2)CN(c2ccc([C@@H]5c6ccc(O)cc6OC[C@@H]5c5ccccc5)cc2)C3)C4)C(=O)N1 (stereo partly shown)	0.001 to 0.01 µM
O=C1CC[C@H](NC(=O)c2ccc3c(n2)OC[C@H]2CN(C[C@@H]4COC5(CCN(c6ccc([C@@H]7c8ccc(O)cc8OC[C@@H]7c7ccccc7)cc6)CC5)C4)CCN32)C(=O)N1	< 0.001 µM
O=C1CC[C@H](N2Cc3c(ccc4c3OC[C@H]3CN(CC5CC6(CCN(c7ccc([C@@H]8c9ccc(O)cc9OC[C@@H]8c8ccccc8)cc7)CC6)C5)CCN43)C2=O)C(=O)N1 (single isomer, unassigned) [Compound A90]	0.001 to 0.01 µM
Cc1nn(C2CCC(=O)NC2=O)c2ccc(N3CCN(CC4CC5(CCN(c6ccc([C@H]7c8ccc(O)cc8OC[C@H]7c7ccccc7)cc6)CC5)C4)CC3)cc12 (single isomer, unassigned)	< 0.001 µM

###

Here the recorded IC50 is given for each entry.
- system: ERα_LBD(GST) (Homo sapiens (Human))

compound	IC50
O=C1CCC(N2C(=O)c3cc4c(cc3C2=O)CN(CC(=O)N2CCC3(CC2)CCN(c2ccc([C@H]5c6ccc(O)cc6OC[C@H]5c5ccccc5)cc2)CC3)C4)C(=O)N1 (some centres unmarked)	≥ 5 nM
O=C1CCC(N2Cc3c(ccc4c3OCC43CCN(CC4COC5(CCN(c6ccc([C@H]7c8ccc(O)cc8OC[C@H]7c7ccccc7)cc6)CC5)C4)CC3)C2=O)C(=O)N1 (some centres unmarked)	≥ 5 nM
O=C1CC[C@@H](N2Cc3cc4c(cc3C2=O)CN(C(=O)CN2CCC3(CC2)CCN(c2ccc([C@H]5c6ccc(O)cc6OC[C@H]5c5ccccc5)cc2)CC3)C4)C(=O)N1 (single isomer, unassigned)	≥ 5 nM
O=C1CCC(N2Cc3cc(N4CCN(CC5CC6(CCN(c7ccc([C@@H]8c9ccc(O)cc9OC[C@@H]8c8ccccc8)cn7)CC6)C5)CC4)ccc3C2=O)C(=O)N1 (single isomer, unassigned)	< 5 nM
O=C1CCC(N2Cc3cc4c(cc3C2=O)OCC42CCN(CC3CCC4(CC3)CN(c3ccc([C@H]5c6ccc(O)cc6OC[C@H]5c5ccccc5)cc3)C4)CC2)C(=O)N1 (some centres unmarked)	< 5 nM
O=C1CCC(N2Cc3cc4c(cc3C2=O)OC[C@@H]2CN(CC3CC5(CCN(c6ccc([C@H]7c8ccc(O)cc8OC[C@H]7c7ccccc7)cc6)CC5)C3)CCN42)C(=O)N1 (single isomer, unassigned)	< 5 nM
O=C1CCC(N2Cc3c(ccc4c3OC[C@@H]3CN(CC5CC6(CCN(c7ccc([C@H]8c9ccc(O)cc9OC[C@H]8c8ccccc8)cc7)CC6)C5)CCN43)C2=O)C(=O)N1 (single isomer, unassigned)	< 5 nM
COc1cc(N2CCC(CN3CCN(c4ccc(C(=O)NC5CCC(=O)NC5=O)nc4)CC3)CC2)c(F)cc1[C@H]1c2ccc(O)cc2OC[C@H]1c1ccccc1 (some centres unmarked)	< 5 nM
COc1cc(N2CCC(CN3CCN4c5cc6c(cc5OC[C@H]4C3)C(=O)N(C3CCC(=O)NC3=O)C6)CC2)ccc1[C@@H]1c2ccc(O)cc2OC[C@@H]1c1ccccc1 (single isomer, unassigned)	< 5 nM
COc1cc(N2CCC(CN3CCC(c4ccc(N[C@@H]5CCC(=O)NC5=O)cc4)CC3)CC2)ccc1[C@@H]1c2ccc(O)cc2OC[C@@H]1c1ccccc1	< 5 nM
O=C1CCC(N2Cc3cc4c(cc3C2=O)CN(C(=O)C2CCN(C3CCN(c5ccc([C@@H]6c7ccc(O)cc7OC[C@@H]6c6ccccc6)cc5)CC3)CC2)C4)C(=O)N1 (single isomer, unassigned)	< 5 nM
O=C1CCC(N2Cc3cc4c(cc3C2=O)OC[C@@H]2CN(CC3CCC5(CC3)CN(c3ccc([C@@H]6c7ccc(O)cc7OC[C@@H]6c6ccccc6)cc3)C5)CCN42)C(=O)N1 (single isomer, unassigned) [Compound A58]	< 5 nM
O=C1CC[C@@H](N2Cc3cc4c(cc3C2=O)OC[C@H]2CN(CC3CCC5(CC3)CN(c3ccc([C@H]6c7ccc(O)cc7OC[C@H]6c6ccccc6)cc3)C5)CCN42)C(=O)N1 (single isomer, unassigned)	< 5 nM
O=C1CCC(N2Cc3c(ccc4c3OC[C@H]3CN(CC5CCN(c6ccc([C@H]7c8ccc(O)cc8OC[C@H]7c7ccccc7)cn6)CC5)CCN43)C2=O)C(=O)N1 (single isomer, unassigned)	< 5 nM
COc1cc(N2CCC(CN3CCN4c5ccc6c(c5OC[C@@H]4C3)CN([C@@H]3CCC(=O)NC3=O)C6=O)CC2)ccc1[C@H]1c2ccc(O)cc2OC[C@H]1c1ccccc1 (single isomer, unassigned)	< 5 nM
O=C1CC[C@@H](N2Cc3cc4c(cc3C2=O)OCC42CCN(CC3CCC4(CC3)CN(c3ccc([C@H]5c6ccc(O)cc6OC[C@H]5c5ccccc5)cc3)C4)CC2)C(=O)N1	< 5 nM
O=C1CCC(N2Cc3c(ccc4c3OC[C@H]3CN(CC5CCN(c6ccc([C@@H]7c8ccc(O)cc8OC[C@@H]7c7ccccc7)cc6)CC5)CCN43)C2=O)C(=O)N1 (single isomer, unassigned)	< 5 nM
